Tested on: SK-MEL-2 melanoma
Assay: NCI tumour cell line growth inhibition, 48 h; in the data active means GI50 below about 0.43 µM; inactive means the rest
Use one of these outcomes when replying: active, inactive

Here's what some known entries look like.
CCN(CC)c1ccc(C=C2C(=O)NC(=S)NC2=O)cc1: inactive
C=C1C(=O)O[C@H]2[C@H]1CC/C(COC(=O)NCc1ccc(Cn3c(=O)sn(CCCI)c3=O)cc1)=C\CC[C@@]1(C)O[C@@H]21: inactive

Problem: Can you look up the reported call for CC(C)c1c(C(=O)Nc2ccccc2)c(-c2ccccc2)c(-c2ccc(F)cc2)n1CC[C@@H](O)C[C@@H](O)CC(=O)O for me?
Solution: inactive

Problem: So what was the verdict on CC(C)OC(=O)OCOP(=O)(OCOC(=O)OC(C)C)C1CCCN(O)C1=O (centres undefined) in this test?
Solution: inactive

Problem: For O=c1[nH]c2c(ccc3cnccc32)c2c1CCC2 , what call appears in the results of this test?
Solution: active

Problem: How was COc1cc(/C=C2\C(=O)Nc3ccc(O)cc32)cc(OC)c1OC classified in this test?
Solution: inactive

Problem: Write down the call the test reported for this compound. Item: CCn1nc(C#Cc2c(C)ccc3c(Nc4ccc(Cl)cc4)nccc23)c2c(N)ncnc21
Solution: inactive

Problem: Assay result, entry Nc1ncnc2c1ncn2C1SC(CO)C(O)C1O (centres undefined) — outcome?
Solution: inactive

Problem: Given CN(C)c1ccc(-c2cc(-c3cccc(NS(C)(=O)=O)c3)nc(N)c2C#N)cc1 , state the outcome it received in this test.
Solution: active
